The following molecules are shown together with reported ligand efficiency lipophilic price (LELP), P. falciparum values.
- System: P. falciparum, strain NF54, erythrocytic stages
- Experiment notes: In vitro growth inhibition assay of Plasmodium falciparum NF54 ([3H]-hypoxanthine incorporation)
- Format: cell-based
- Condition set: based on IC50 values in nmol/L; DataWarrior 5.5.0
- Description: Antimalarial activity was determined in vitro against the erythrocytic stages of P. falciparum using the drug-sensitive strain NF54. Parasite proliferation was assessed by incorporation of [^3H]-hypoxanthine using a modified version of [75]; for details, please refer to the Supplementary Materials. […] Plasmodium falciparum, strain NF54, erythrocytic stages, and the standard drug, chloroquine, were used for the assay. […] The radioactivity was counted using a BetaplateTM liquid scintillation […]
Write no unit; give the number alone.

{"Molecule": "COC(=O)CC1(O)C=C(Br)C(=O)C(Br)=C1", "Numeric value": 1.613}
{"Molecule": "COC(=O)CC1(O)C=CC(=O)C(Cl)=C1 (stereo not drawn)", "Numeric value": 0.4433}
{"Molecule": "COC(=O)CC1(O)C=CC(=O)C(F)=C1 (stereo not drawn)", "Numeric value": 0.07582}

-- ask Name the recorded ligand efficiency lipophilic price (LELP), P. falciparum for COC(=O)CC1(O)C=C(Cl)C(=O)C(Cl)=C1 .
-- reply 1.1301

-- ask Likewise for O=C1C=CC(=O)c2cc(F)c(F)cc21 ?
-- reply 2.7178

-- ask Likewise for COC(=O)CC1(O)C=CC(=O)C(Br)=C1 (stereo not drawn) ?
-- reply 0.6181

----------
- Tested on: P. falciparum, strain NF54, erythrocytic stages
- Experiment notes: In vitro growth inhibition assay of Plasmodium falciparum NF54 ([3H]-hypoxanthine incorporation)
- Type: cell-based
- Condition set: based on IC50 values in nmol/L; DataWarrior 5.5.0
Parameter threshold = 5. Response is condition met when lipophilic ligand efficiency (LLE), P. falciparum meets or exceeds it, else condition not met.

{"Compound": "O=C1C=CC(=O)c2cc(F)ccc21 [Compound 5d]", "Assayed target": "P. falciparum, strain NF54, erythrocytic stages", "Class": "condition not met"}
{"Compound": "O=C1C=CC2(C=C1)CCC(=O)O2 [Compound 4h, 1-Oxaspiro [4.5]deca-6,9-diene-2,8-dione]", "Assayed target": "P. falciparum, strain NF54, erythrocytic stages", "Class": "condition met"}
{"Compound": "COC(=O)/C=C/C1(O)C=CC(=O)C=C1 [Compound 4i]", "Assayed target": "P. falciparum, strain NF54, erythrocytic stages", "Class": "condition met"}

-- ask Does lipophilic ligand efficiency (LLE), P. falciparum meet or surpass 5 for COC(=O)CC1(O)C=C(Cl)C(=O)C(Cl)=C1 [Compound 4e] ?
-- reply condition met

-- ask Likewise for COC(=O)CC1(O)C=CC(=O)C(Cl)=C1 (centres unmarked) [Compound 4c] ?
-- reply condition met

----------
The following compounds are shown together with reported ligand efficiency lipophilic price (LELP), T. brucei rhodesiense values.
- Test system: T. brucei rhodesiense, strain STIB900 trypomastigote forms
- Experiment notes: In vitro growth inhibition assay of Trypanosoma brucei rhodesiense STIB900 (Alamar blue)
- Type: cell-based
- Condition set: based on IC50 values in nmol/L; DataWarrior 5.5.0
Write no unit; give the number alone.

Take a look at these entries with their results.
{"Compound": "COC(=O)CCC1(O)C=CC(=O)C=C1 [Compound 4g]", "Numeric value": 0.5746}
{"Compound": "COC(=O)CC1(O)C=CC(=O)C(Br)=C1 (centres unmarked) [Compound 4d]", "Numeric value": 0.5464}
{"Compound": "O=C1C=CC(=O)c2cc(F)ccc21 [Compound 5d]", "Numeric value": 2.0757}
{"Compound": "COC(=O)CC1(O)C=CC(=O)C=C1 [Compound 4a]", "Numeric value": -0.2362}

Now take the following compound into account.
-- ask Name the recorded ligand efficiency lipophilic price (LELP), T. brucei rhodesiense for COC(=O)/C=C/C1(O)C=CC(=O)C=C1 [Compound 4i] .
-- reply 0.0687

----------
The following compounds are shown together with reported lipophilic ligand efficiency (LLE), T. brucei rhodesiense values.
- System: T. brucei rhodesiense, strain STIB900 trypomastigote forms
- Experiment notes: In vitro growth inhibition assay of Trypanosoma brucei rhodesiense STIB900 (Alamar blue)
- Type: cell-based
- Condition set: based on IC50 values in nmol/L; DataWarrior 5.5.0
Write no unit; give the number alone.

Take a look at these entries with their results.
{"Compound": "COC(=O)CC1(O)C=CC(=O)C(F)=C1 (stereo not drawn) [Compound 4b]", "Numeric value": 7.0619}
{"Compound": "O=C1C=CC(=O)c2cc(F)c(F)cc21 [Compound 5e]", "Numeric value": 5.1389}
{"Compound": "O=C1C=CC(=O)c2cc(F)ccc21 [Compound 5d]", "Numeric value": 5.4913}
{"Compound": "COC(=O)CC1(O)C=CC(=O)C(Br)=C1 (stereo not drawn) [Compound 4d]", "Numeric value": 6.9818}
{"Compound": "COC(=O)CC1(O)C=CC(=O)C=C1 [Compound 4a]", "Numeric value": 6.3859}

Now take the following compound into account.
-- ask For the record COC(=O)CC1(O)C=C(Cl)C(=O)C(Cl)=C1 [Compound 4e] , what value of lipophilic ligand efficiency (LLE), T. brucei rhodesiense is listed for T. brucei rhodesiense, strain STIB900 trypomastigote forms?
-- reply 7.3167

----------
The following compounds are shown together with reported melting point values.

Take a look at these entries with their results.
{"Compound": "COC(=O)CCC1(O)C=CC(=O)C=C1", "Result": "49 to 50 °C"}
{"Compound": "O=C1C=CC2(C=C1)CCC(=O)O2 [Compound 4h, 1-Oxaspiro [4.5]deca-6,9-diene-2,8-dione]", "Result": "105 to 106 °C"}
{"Compound": "O=C1C=CC(=O)c2cc(F)ccc21", "Result": "119 to 120 °C"}

Now take the following compound into account.
-- ask Name the recorded melting point for O=C1C=CC(=O)c2cc(F)c(F)cc21 .
-- reply 128 to 130 °C

----------
- Test system: T. brucei rhodesiense, strain STIB900 trypomastigote forms
- Experiment notes: In vitro growth inhibition assay of Trypanosoma brucei rhodesiense STIB900 (Alamar blue)
- Type: cell-based
- Condition set: based on IC50 values in nmol/L; DataWarrior 5.5.0
Test readout: lipophilic ligand efficiency (LLE), T. brucei rhodesiense
Write no unit; give the number alone.

Take a look at these entries with their results.
{"Molecule": "O=C1C=CC2(C=C1)CCC(=O)O2 [Compound 4h, 1-Oxaspiro [4.5]deca-6,9-diene-2,8-dione]", "Numeric value": 5.2346}
{"Molecule": "COC(=O)CCC1(O)C=CC(=O)C=C1", "Numeric value": 5.0134}
{"Molecule": "COC(=O)CC1(O)C=CC(=O)C(Cl)=C1 (stereo not shown)", "Numeric value": 7.0639}

Now take the following molecule into account.
-- ask Name the recorded lipophilic ligand efficiency (LLE), T. brucei rhodesiense for COC(=O)CC1(O)C=C(Br)C(=O)C(Br)=C1 .
-- reply 6.6745

----------
- System: P. falciparum, strain NF54, erythrocytic stages
- Experiment notes: In vitro growth inhibition assay of Plasmodium falciparum NF54 ([3H]-hypoxanthine incorporation)
- Type: cell-based
- Condition set: based on IC50 values in nmol/L; DataWarrior 5.5.0
Test readout: ligand efficiency lipophilic price (LELP), P. falciparum
Write no unit; give the number alone.

Take a look at these entries with their results.
{"Compound": "COC(=O)CCC1(O)C=CC(=O)C=C1", "Numeric value": 0.5999}
{"Compound": "O=C1C=CC2(C=C1)CCC(=O)O2 [Compound 4h, 1-Oxaspiro [4.5]deca-6,9-diene-2,8-dione]", "Numeric value": 0.1197}

-- ask For the record O=C1C=CC(=O)c2cc(F)ccc21 , what value of ligand efficiency lipophilic price (LELP), P. falciparum is listed for P. falciparum, strain NF54, erythrocytic stages?
-- reply 2.3657

-- ask Likewise for COC(=O)CC1(O)C=CC(=O)C=C1 ?
-- reply -0.2447

-- ask Likewise for COC(=O)/C=C/C1(O)C=CC(=O)C=C1 ?
-- reply 0.07742

----------
- Tested on: T. brucei rhodesiense, strain STIB900 trypomastigote forms
- Experiment notes: In vitro growth inhibition assay of Trypanosoma brucei rhodesiense STIB900 (Alamar blue)
- Type: cell-based
- Condition set: Trypanosoma brucei; STIB900; stated in text in nM; read-out: T. brucei rhodesiense IC50
Test readout: IC50

-- ask Name the recorded IC50 for O=C1C=CC(=O)c2cc(F)ccc21 [Compound 5d] .
-- reply < 100 nM

----------
- Test system: T. brucei rhodesiense, strain STIB900 trypomastigote forms
- Experiment notes: In vitro growth inhibition assay of Trypanosoma brucei rhodesiense STIB900 (Alamar blue)
- Format: cell-based
- Condition set: based on IC50 values in nmol/L; DataWarrior 5.5.0
The following compounds are shown together with reported ligand efficiency lipophilic price (LELP), T. brucei rhodesiense values.

{"Compound": "O=C1C=CC(=O)c2cc(F)c(F)cc21 [Compound 5e]", "Assayed target": "T. brucei rhodesiense, strain STIB900 trypomastigote forms", "Result": 2.470}

-- ask Name the recorded ligand efficiency lipophilic price (LELP), T. brucei rhodesiense for O=C1C=CC2(C=C1)CCC(=O)O2 [Compound 4h, 1-Oxaspiro [4.5]deca-6,9-diene-2,8-dione] .
-- reply 0.1253

-- ask Likewise for COC(=O)CC1(O)C=C(Br)C(=O)C(Br)=C1 [Compound 4f] ?
-- reply 1.3564

-- ask Likewise for COC(=O)CC1(O)C=C(Cl)C(=O)C(Cl)=C1 [Compound 4e] ?
-- reply 0.9339

-- ask Likewise for COC(=O)CC1(O)C=CC(=O)C(Cl)=C1 (centres unmarked) [Compound 4c] ?
-- reply 0.3676

Source listed as paper PMC9573667.
